TARGET SYSTEM: T1, human CD47 (human, UniProt Q08722 19-323)
T1 construct: whole, on cells; also called CD47 on human RBCs; CD47 on OV10 cells
T1 sequence (Q08722 19-323): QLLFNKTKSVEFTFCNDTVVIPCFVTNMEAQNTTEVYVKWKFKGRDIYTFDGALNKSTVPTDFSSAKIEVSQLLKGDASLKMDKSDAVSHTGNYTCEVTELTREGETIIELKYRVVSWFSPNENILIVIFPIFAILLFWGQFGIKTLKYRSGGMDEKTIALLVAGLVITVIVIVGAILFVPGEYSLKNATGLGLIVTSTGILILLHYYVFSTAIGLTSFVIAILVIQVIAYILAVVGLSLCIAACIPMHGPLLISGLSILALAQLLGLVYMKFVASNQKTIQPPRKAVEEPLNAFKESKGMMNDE
EXPERIMENT NOTES: FACS, human RBCs, supernatant 10 ng/ml
Some binders, each annotated with its measured mean fluorescence relative to chimera.
TEST READOUT: mean fluorescence relative to chimera

Clone 12 (pVxK7b-037-hum12-LC / pVxK7b-037-hum12-HC) (antibody, human IgG1, kappa, V domains shown) VH: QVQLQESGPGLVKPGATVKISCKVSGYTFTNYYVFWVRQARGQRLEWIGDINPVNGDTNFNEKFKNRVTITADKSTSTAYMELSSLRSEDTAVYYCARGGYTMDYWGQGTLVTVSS VL: DIVMTQTPLSLPVTPGEPASISCRSSQSLVHSNGNTYLHWYQQKPGKAPKLLIYKVSYRFSGVPDRFSGSGSGTDFTLKISRVEAEDVGVYYCSQNTHVPRTFGQGTKVEIKR ... 0.8
Clone 18 (pVxK7b-037-hum18-LC / pVxK7b-037-hum18-HC) (antibody, human IgG1, kappa, V domains shown) VH: EVQLVQSGAEVKKPGESLRISCKGSGYTFTNYYVFWIRQSPSRGLEWLGDINPVNGDTNFNEKFKNRVTITADKSTSTAYMELSSLRSEDTAVYYCARGGYTMDYWGQGTLVTVSS VL: EIVLTQSPATLSVSPGERATLSCRSSQSLVHSNGNTYLHWYQQKPGQAPRLLIYKVSYRFSGVPSRFSGSGSGTDFTFTISSLEAEDAATYYCSQNTHVPRTFGQGTKVEIKR ... 1
Clone 2 (pVxK7b-037-hum02-LC / pVxK7b-037-hum02-HC) (antibody, human IgG1, kappa, V domains shown) VH: QVQLQESGPGLVKPSQTLSLTCTVSGYTFTNYYVFWVRQARGQRLEWIGDINPVNGDTNFNEKFKNRVTISADKSISTAYLQWSSLKASDTAMYYCARGGYTMDYWGQGTLVTVSS VL: DVVMTQSPLSLPVTLGQPASISCRSSQSLVHSNGNTYLHWYQQKPGQAPRLLIYKVSYRFSGVPSRFSGSGSGTEFTLTISSLQPDDFATYYCSQNTHVPRTFGQGTKVEIKR ... 1
Clone 7 (pVxK7b-037-hum07-LC / pVxK7b-037-hum07-HC) (antibody, human IgG1, kappa, V domains shown) VH: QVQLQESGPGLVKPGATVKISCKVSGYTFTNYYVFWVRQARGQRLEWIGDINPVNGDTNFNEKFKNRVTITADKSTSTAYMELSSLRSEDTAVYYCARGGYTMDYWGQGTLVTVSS VL: DIVMTQTPLSLPVTPGEPASISCRSSQSLVHSNGNTYLHWYLQKPGQSPQLLIYKVSYRFSGVPDRFSGSGSGTDFTLKISRVEAEDVGVYYCSQNTHVPRTFGQGTKVEIKR ... 0.5
